molecular target: CDK6 CCND3 (human) (UniProt P30281+Q00534); assay: radiometric filter-binding kinase assay, Kinase HotSpot; settings: compound 0.5 µM; ATP 10 µM
Sequence (P30281 whole entry, looked up): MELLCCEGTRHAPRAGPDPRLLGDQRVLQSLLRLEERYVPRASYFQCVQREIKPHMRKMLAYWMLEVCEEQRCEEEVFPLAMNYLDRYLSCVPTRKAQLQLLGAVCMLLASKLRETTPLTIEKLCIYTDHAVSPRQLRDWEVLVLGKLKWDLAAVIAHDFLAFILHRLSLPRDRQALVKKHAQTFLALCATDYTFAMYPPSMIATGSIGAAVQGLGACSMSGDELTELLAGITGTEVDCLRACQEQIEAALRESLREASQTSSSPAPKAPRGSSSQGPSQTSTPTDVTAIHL
Sequence (Q00534 whole entry, looked up): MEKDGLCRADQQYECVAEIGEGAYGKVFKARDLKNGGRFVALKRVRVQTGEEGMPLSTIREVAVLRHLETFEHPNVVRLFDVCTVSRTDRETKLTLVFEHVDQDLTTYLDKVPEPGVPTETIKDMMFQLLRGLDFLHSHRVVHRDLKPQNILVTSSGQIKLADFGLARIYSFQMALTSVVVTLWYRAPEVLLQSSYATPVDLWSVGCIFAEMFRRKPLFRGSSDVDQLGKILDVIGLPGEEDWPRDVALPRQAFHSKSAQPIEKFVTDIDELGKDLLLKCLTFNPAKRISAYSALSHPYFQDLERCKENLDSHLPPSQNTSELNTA
Catalogue of molecules with associated residual activity
State the value, then name its unit.

These recorded examples may help you get a feel for the data.
INSERT INTO assay_data (molecule, target_entity, measured_property, result) VALUES
  ('O=C1Nc2ccc(Cl)cc2/C1=C/c1cc(Cl)c(O)c(Cl)c1', 'CDK6 CCND3 (human) (UniProt P30281+Q00534)', 'residual activity', '94.1%'),
  ('CCC(=O)Nc1ccc2ncnc(Nc3cccc(Br)c3)c2c1', 'CDK6 CCND3 (human) (UniProt P30281+Q00534)', 'residual activity', '94.8%'),
  ('O=C1NC(=O)/C(=C/c2ccc3c(c2)OC(F)(F)O3)S1', 'CDK6 CCND3 (human) (UniProt P30281+Q00534)', 'residual activity', '92.6%'),
  ('O=C1NC(=O)c2c1c1c3ccccc3n3c1c1c2c2ccccc2n1C1CCC3O1', 'CDK6 CCND3 (human) (UniProt P30281+Q00534)', 'residual activity', '19.9%');

[ask] Find the measured residual activity of Cc1[nH]c(/C=C2\C(=O)Nc3ccc(S(=O)(=O)N(C)c4cccc(Cl)c4)cc32)c(C)c1C(=O)N1CCN(C)CC1 with CDK6 CCND3 (human) (UniProt P30281+Q00534) as test system.
[reply] 72.8%

[ask] Fetch value of residual activity on CDK6 CCND3 (human) (UniProt P30281+Q00534) for Oc1cccc(-c2nc(N3CCOCC3)c3oc4ncccc4c3n2)c1 .
[reply] 89.7%

[ask] Consider the molecule Cc1ccc(NC2=CC(=O)c3sc(C)nc3C2=O)cc1 tested on CDK6 CCND3 (human) (UniProt P30281+Q00534); state its residual activity.
[reply] 99.6%

[ask] Print CDK6 CCND3 (human) (UniProt P30281+Q00534) residual activity for COC[C@H]1OC(=O)c2coc3c2[C@@]1(C)C1=C(C3=O)[C@@H]2CCC(=O)[C@@]2(C)C[C@H]1OC(C)=O .
[reply] 85.8%

[ask] Give residual activity only, for Nc1cccc(-c2cc3c(Oc4cccc(O)c4)ncnc3[nH]2)c1 , using CDK6 CCND3 (human) (UniProt P30281+Q00534) data.
[reply] 91.3%

[ask] // output residual activity; input CO[C@H]1CC2CC[C@@H](C)[C@@](O)(O2)C(=O)C(=O)N2CCCC[C@H]2C(=O)OC([C@H](C)C[C@@H]2CC[C@@H](O)[C@H](OC)C2)CC(=O)[C@H](C)/C=C(\C)[C@@H](O)[C@@H](OC)C(=O)[C@H](C)C[C@H](C)/C=C/C=C/C=C/1C (stereo not given in full) ; system CDK6 CCND3 (human) (UniProt P30281+Q00534)
[reply] 105%

[ask] Give the observed residual activity of Cc1ccc(Nc2nccc(N(C)c3ccc4c(C)n(C)nc4c3)n2)cc1S(N)(=O)=O for CDK6 CCND3 (human) (UniProt P30281+Q00534).
[reply] 96.1%
